assay: chemical genetic growth profiling, strain panel (AID 1159580);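 also: tested at 20 µM; growth read once vehicle control cultures reached saturation at 30 °C; 1 = growth at the plate median or of vehicle wells; lower values mean less growth of the strain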; conditions: S. cerevisiae deletion strains, growth OD, locus YOR329C, strain SCD5, hits give low values
Hit rate of the full screen: of about 5,500 compounds, about 2,000 (36%) were called active. Another 18% or so got no clear call; they are omitted. Some of the results follow.
Reported normalized growth is given for each of the following compounds.
# print the numeric value only

The examples below pair each entry with its known result.
compound	normalized growth
NC(=NC(=O)c1ccc(Cl)cc1)c1cccs1	0.949
OC(c1ccc(C(F)(F)F)cc1)c1cccc(C(F)(F)F)c1 (stereo unspecified)	0.967

[ask] Which normalized growth reading was recorded for the compound "COc1cc(C(=O)Oc2c(Cl)cc(Cl)cc2C=Nc2cccc([N+](=O)[O-])c2)cc(OC)c1OC" ?
[reply] 0.985

[ask] Another compound to look at: "CC1(C)C/C(=N/Nc2ccc(C(F)(F)F)cc2)c2cc(C(C)(C)C)c(O)c(O)c2O1"
[reply] 0.983

[ask] Another compound to look at: "Cc1cc(C(=O)O/N=C(/N)c2ccc(C(C)(C)C)cc2)no1"
[reply] 0.987

[ask] Another compound to look at: "COc1ccccc1NC(=O)Nc1nn(C)c2cccc(OC)c12"
[reply] 0.933

* * *

experiment: chemical genetic growth profiling, strain panel (AID 1159580);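 also: tested at 20 µM; growth read once vehicle control cultures reached saturation at 30 °C; 1 = growth at the plate median or of vehicle wells; lower values mean less growth of the strain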; conditions: S. cerevisiae deletion strains, growth OD, locus YHR200W, strain rpn10
The campaign covered roughly 5,500 compounds. About 2,000 (36%) were called active. Roughly 18% stayed inconclusive and do not appear here. Rule as the data show it: active = normalized growth mostly below about 0.91 (no sharp cut-off); inconclusive = no clear call, values can overlap the other calls; inactive = mostly above about 0.92. The list shows a part of the results.
Allowed answers: Y (active), N (inactive)

[ask] So what was the verdict on "CC1=C(/C=C/C(C)=C/C=C/C(C)=C/C(=O)O)C(C)(C)CCC1" in this test?
[reply] N

[ask] Another compound to look at: CCOC(=O)CCCCCCCCCCCCC1C=CCC1 (stereo not drawn)
[reply] Y

[ask] Another compound to look at: CC[C@@H](C(=O)O)[C@@H]1O[C@@H]([C@@H](C)[C@H](O)[C@H](C)C(=O)[C@H](CC)[C@H]2O[C@]3(C=C[C@@H](O)[C@]4(CC[C@@](C)(C5CC[C@](O)(CC)[C@H](C)O5)O4)O3)[C@H](C)C[C@@H]2C)[C@@H](C)C[C@H]1C (stereo partly drawn)
[reply] Y

[ask] Another compound to look at: "CC1=C(/C=C/C(C)=C/C=C/C(C)=C\C(=O)O)C(C)(C)CCC1"
[reply] N

[ask] Another compound to look at: "COc1cc(C(=O)O)c(O)c2c1OCO2"
[reply] N

* * *

experiment: chemical genetic growth profiling, strain panel (AID 1159580);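 also: tested at 20 µM; growth read once vehicle control cultures reached saturation at 30 °C; 1 = growth at the plate median or of vehicle wells; lower values mean less growth of the strain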; conditions: S. cerevisiae deletion strains, growth OD, locus YJL129C, strain trk1, hits give low values
The whole screen tested about 5,500 compounds, of which about 2,000 (36%) were called active. Not shown: some 18% with an inconclusive outcome. This is one part of the list.
Reported normalized growth is given for each of the following molecules.
# print the numeric value only

The examples below pair each entry with its known result.
molecule	attribute measured	quantitative result
CCCN(CCC)CCc1cccc2c1CC(=O)N2	normalized growth	0.973
O=C1O[C@@H](CO)[C@H](O)[C@@H](O)[C@@H]1O	normalized growth	1.02

[ask] Which normalized growth reading was recorded for the molecule "CC1=C(/C=C/C(C)=C/C=C/C(C)=C\C(=O)O)C(C)(C)CCC1" ?
[reply] 0.956

[ask] Another molecule to look at: "C[C@H](COc1ccccc1)N[C@H](C)[C@H](O)c1ccc(O)cc1"
[reply] 0.993

[ask] Another molecule to look at: CCC(COC(=O)c1cc(OC)c(OC)c(OC)c1)(c1ccccc1)N(C)C (stereo unspecified)
[reply] 0.938

[ask] Another molecule to look at: CC(COc1ccccc1)N(CCCl)Cc1ccccc1 (stereo unspecified)
[reply] 0.956

[ask] Another molecule to look at: "Oc1ccc(/C=C/c2cc(O)cc(O)c2)cc1"
[reply] 0.903

[ask] Another molecule to look at: "CC1=C(/C=C/C(C)=C/C=C/C(C)=C/C=C/C=C(C)/C=C/C=C(C)/C=C/C2=C(C)CCCC2(C)C)C(C)(C)CCC1"
[reply] 0.969

[ask] Another molecule to look at: "c1cc2c(cc1[C@H]1OC[C@H]3[C@@H]1CO[C@H]3c1ccc3c(c1)OCO3)OCO2"
[reply] 0.722

[ask] Another molecule to look at: O=C(NC(=O)c1c(F)cccc1F)Nc1cc(Cl)c(OC(F)(F)C(F)C(F)(F)F)cc1Cl (stereo unspecified)
[reply] 0.988

Data origin, for the record: PubChem BioAssay AID1159580
